METHOD DESCRIPTION: SK-BR-3 cell growth inhibitors, pilot screen, 24 h, human (AID 572);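 also: compound exposure lasted between 18 and 24 h rather than exactly 24 h; 100% = carrier-treated control wells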
CONDITIONS: SK-BR-3 viability, CellTiter-Glo luminescence, at 10 µM, hits give low values
PARAMETER MEASURED: viability (%)
Give the value, in units of %, as a plain number.

Could you tell me which viability is on file for `COC(=O)CCSCc1cn2cc(Cl)ccc2n1` ?
120

// repeat for COc1ccc(Cn2nnnc2C(c2cccs2)N2CCOCC2)cc1 (configuration not stated) and report
105

Please answer likewise for CC(C)CCNC(=O)C(c1cccs1)N(CC1CCCO1)C(=O)Cn1nnc2ccccc21 (configuration not stated)
116

Proceed to CC1=CC2=C(OC1N(C)C)c1cccc3cccc(c13)C2=O (configuration not stated)
106

What about `CCOC(=O)Cc1csc(NC(=O)CN(C)S(=O)(=O)c2ccc3c(c2)CCC(=O)N3)n1` ?
108

Next compound: `C=CCc1c(C)nc(SC)nc1Nc1ccc(C(=O)O)cc1`
106

For `N#CCc1c(C#N)c(N)nc(N2CCN(S(=O)(=O)c3ccccc3)CC2)c1C#N` then?
74

# iterate: `O=S(=O)(NCCc1ccccc1F)c1cccc(S(=O)(=O)N2CCOCC2)c1`
87

Please do the same for `CCN(c1ccc(OC)cc1)S(=O)(=O)c1ccc2c(c1)CCN2C(=O)CCC(=O)O` as well.
115

Consider next the compound `Cc1cc(N2CCN(c3ccccn3)CC2)n2nc(C)nc2n1` in the same way.
102

Moving on to the next compound: `Cn1c(=O)c2c(nc(SCCCC#N)n2Cc2ccccc2F)n(C)c1=O`
79.5

Try this compound next: `COc1ccc2c(c1)n([O-])c1c([n+]2=O)CCC1`
110

Same read-out for `CC(C)c1ccc(S(=O)(=O)N2CCN(C(=O)c3cccc(F)c3)CC2)cc1` ?
106
